B1: TPR 5TU (parent)
chain: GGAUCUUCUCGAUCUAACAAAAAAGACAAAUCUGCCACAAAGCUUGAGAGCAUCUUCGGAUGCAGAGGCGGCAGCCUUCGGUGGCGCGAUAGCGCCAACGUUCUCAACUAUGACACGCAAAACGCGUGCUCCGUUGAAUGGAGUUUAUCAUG

Variants of: B1
Procedure text: polymerase ribozyme fitness, log enrichment relative to wild type (log ratio); higher = more active; in vitro selection for triplet polymerase activity
Fewer inactive variants are shown than the library holds.
Experimental readout: polymerase ribozyme fitness (log ratio)
Field format: numeric only.

Sample answers from the record:
A60U A89C A142U: -2.09
A37G G117U: -2.18
A97G C131G: -3.21
C14G C93A: -3.68

query: What value of measured polymerase ribozyme fitness (log ratio) is listed for U55G C72U ?
result: -0.349

query: Would you mind doing U55G G84A A89U C103U as well?
result: -1.64

query: Would you mind doing U31A C51G as well?
result: -0.943

query: Would you mind doing U13A U55A A89C G128U as well?
result: -3.92

query: Would you mind doing A26G C35U as well?
result: -3.06
